Where do the numbers come from? From paper PMC10251674.

As shown below, each of these molecules has a reported pIC50 value.
Test system: THLE2 normal liver cells
Test: MTT cytotoxicity assay against THLE2 cells
Assay type: cell-based
Conditions: Homo sapiens, THLE-2, MTT assay, 48 h, n = 3, read-out: IC50 ± SD THLE2
pIC50 is a log-scale quantity: -log10 of the concentration expressed in molar.

Past entries and their recorded results:
MOLECULE	TEST_TARGET	pIC50
O=C(c1ccc2ccccc2c1)c1cn(-c2ccccc2)nc1-c1csc(N/N=C\c2ccccc2OCCCCOc2ccccc2/C=N\Nc2nc(-c3nn(-c4ccccc4)cc3C(=O)c3ccc4ccccc4c3)cs2)n1 [Compound 21c]	THLE2 normal liver cells	4.34
O=C(c1ccc2ccccc2c1)c1cn(-c2ccccc2)nc1-c1csc(N/N=C\c2ccccc2OCCCOc2ccccc2/C=N\Nc2nc(-c3nn(-c4ccccc4)cc3C(=O)c3ccc4ccccc4c3)cs2)n1 [Compound 21b]	THLE2 normal liver cells	4.31
O=C(c1ccc2ccccc2c1)c1cn(-c2ccccc2)nc1-c1csc(N/N=C/c2ccc(OCCOc3ccc(/C=N/Nc4nc(-c5nn(-c6ccccc6)cc5C(=O)c5ccc6ccccc6c5)cs4)cc3)cc2)n1 [Compound 18a]	THLE2 normal liver cells	4.40
Cc1ccc(C=NNc2nc(-c3nn(-c4ccccc4)cc3C(=O)c3ccc4ccccc4c3)cs2)cc1 [Compound 8b]	THLE2 normal liver cells	4.38

Q) Report pIC50, nothing else, for this molecule: O=C(c1ccc2ccccc2c1)c1cn(-c2ccccc2)nc1C(=O)CBr [Compound 6]
A) 4.46

###

The following compounds are shown together with reported melting point values.

Q) Indicate its recorded melting point; the compound in question is O=C(c1ccc2ccccc2c1)c1cn(-c2ccccc2)nc1-c1csc(N/N=C\c2ccccc2OCCOc2ccccc2/C=N\Nc2nc(-c3nn(-c4ccccc4)cc3C(=O)c3ccc4ccccc4c3)cs2)n1 [Compound 21a]
A) 166 to 168 °C

Q) Identify melting point associated with the compound `O=C(c1ccc2ccccc2c1)c1cn(-c2ccccc2)nc1-c1csc(NN=Cc2ccccc2)n1`
A) 138 to 140 °C

Q) Using known records, supply melting point for O=C(c1ccc2ccccc2c1)c1cn(-c2ccccc2)nc1-c1csc(N/N=C/c2ccc(OCCOc3ccc(/C=N/Nc4nc(-c5nn(-c6ccccc6)cc5C(=O)c5ccc6ccccc6c5)cs4)cc3)cc2)n1 [Compound 18a]
A) 187 to 189 °C

Q) Tell us which melting point value is on record for `CC(=NNc1nc(-c2nn(-c3ccccc3)cc2C(=O)c2ccc3ccccc3c2)cs1)c1nc2ccccc2s1`
A) 143 to 145 °C

Q) Note melting point for the compound shown: `CC(=NNc1nc(-c2nn(-c3ccccc3)cc2C(=O)c2ccc3ccccc3c2)cs1)c1cc2ccccc2o1`
A) 164 to 166 °C

###

pIC50 values for the compounds below.
Biological target: EGFR kinase (Homo sapiens)
Sequence (P00533 25-1210): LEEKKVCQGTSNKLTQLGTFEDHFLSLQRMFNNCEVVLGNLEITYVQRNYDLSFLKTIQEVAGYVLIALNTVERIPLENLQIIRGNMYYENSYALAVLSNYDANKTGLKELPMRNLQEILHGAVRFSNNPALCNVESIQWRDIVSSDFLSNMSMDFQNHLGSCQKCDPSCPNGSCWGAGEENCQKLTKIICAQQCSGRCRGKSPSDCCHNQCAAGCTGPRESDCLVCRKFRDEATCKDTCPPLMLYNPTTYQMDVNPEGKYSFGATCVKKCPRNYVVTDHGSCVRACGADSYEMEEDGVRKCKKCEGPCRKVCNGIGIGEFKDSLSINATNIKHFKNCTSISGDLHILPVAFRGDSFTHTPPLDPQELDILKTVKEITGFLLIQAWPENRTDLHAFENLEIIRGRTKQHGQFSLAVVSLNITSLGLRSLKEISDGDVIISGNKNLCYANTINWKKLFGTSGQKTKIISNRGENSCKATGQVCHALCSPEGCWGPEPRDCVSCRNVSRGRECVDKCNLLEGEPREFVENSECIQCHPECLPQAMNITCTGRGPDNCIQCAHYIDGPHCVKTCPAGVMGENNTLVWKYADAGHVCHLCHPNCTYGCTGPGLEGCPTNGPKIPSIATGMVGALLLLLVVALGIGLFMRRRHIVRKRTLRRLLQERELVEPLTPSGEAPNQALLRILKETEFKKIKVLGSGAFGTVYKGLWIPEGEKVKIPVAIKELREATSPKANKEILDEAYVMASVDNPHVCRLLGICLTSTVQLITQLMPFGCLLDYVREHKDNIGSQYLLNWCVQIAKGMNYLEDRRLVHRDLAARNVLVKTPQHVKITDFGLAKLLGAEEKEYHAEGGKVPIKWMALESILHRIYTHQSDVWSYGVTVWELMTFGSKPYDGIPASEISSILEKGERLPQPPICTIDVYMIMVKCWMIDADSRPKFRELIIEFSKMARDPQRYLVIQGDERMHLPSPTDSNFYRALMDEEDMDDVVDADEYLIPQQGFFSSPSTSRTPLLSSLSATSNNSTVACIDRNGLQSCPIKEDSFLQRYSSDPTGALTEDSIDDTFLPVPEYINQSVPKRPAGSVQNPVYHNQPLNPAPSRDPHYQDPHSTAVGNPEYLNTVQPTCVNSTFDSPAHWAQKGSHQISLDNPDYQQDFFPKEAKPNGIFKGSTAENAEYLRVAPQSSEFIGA
# pIC50: negative log10 of molar concentration; output just the value

// below: answered compounds
COMPOUND	NUMERIC_VALUE
O=C(c1ccc2ccccc2c1)c1cn(-c2ccccc2)nc1-c1csc(N/N=C\c2ccccc2OCCOc2ccccc2/C=N\Nc2nc(-c3nn(-c4ccccc4)cc3C(=O)c3ccc4ccccc4c3)cs2)n1 [Compound 21a]	8.24
O=C(c1ccc2ccccc2c1)c1cn(-c2ccccc2)nc1-c1csc(N/N=C/c2ccc(OCCCCOc3ccc(/C=N/Nc4nc(-c5nn(-c6ccccc6)cc5C(=O)c5ccc6ccccc6c5)cs4)cc3)cc2)n1 [Compound 18c]	8.30

Then there is this compound:
Q) Could you please provide reported pIC50 for O=C(c1ccc2ccccc2c1)c1cn(-c2ccccc2)nc1-c1csc(N/N=C/c2ccc(OCCCOc3ccc(/C=N/Nc4nc(-c5nn(-c6ccccc6)cc5C(=O)c5ccc6ccccc6c5)cs4)cc3)cc2)n1 [Compound 18b] ? Thanks!
A) 8.15
